molecular target: human CD3 (human, UniProt P07766 23-207; P04234 22-171; P09693 23-182); experiment: cell-based or functional assay
Sequence (P07766 23-207, chain 1 of 3): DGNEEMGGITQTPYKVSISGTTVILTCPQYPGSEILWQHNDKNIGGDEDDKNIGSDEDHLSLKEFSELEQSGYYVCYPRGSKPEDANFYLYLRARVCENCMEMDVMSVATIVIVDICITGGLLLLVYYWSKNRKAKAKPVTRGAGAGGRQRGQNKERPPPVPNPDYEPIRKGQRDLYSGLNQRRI
Sequence (P04234 22-171, chain 2 of 3): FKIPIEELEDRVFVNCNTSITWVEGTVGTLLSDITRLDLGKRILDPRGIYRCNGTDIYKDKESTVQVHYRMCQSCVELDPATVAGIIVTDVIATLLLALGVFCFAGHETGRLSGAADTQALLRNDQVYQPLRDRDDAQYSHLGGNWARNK
Sequence (P09693 23-182, chain 3 of 3): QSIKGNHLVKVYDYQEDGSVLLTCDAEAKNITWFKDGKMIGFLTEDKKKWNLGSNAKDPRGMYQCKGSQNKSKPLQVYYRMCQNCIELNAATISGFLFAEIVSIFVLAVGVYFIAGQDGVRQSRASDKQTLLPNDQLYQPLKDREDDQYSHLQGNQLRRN
Binarize CD4 EC50 (nM); CD69/CD25 on human T cells, plate-coated antibody at 7 nM; below is 1, at or above is 0.

>>> class("mAb 53 (antibody, V domains shown) VH: QVQLVQSGAEVKKPGASVKVSCKASGYTFTSYDINWVRQATGQGLEWMGWMNPKSGKTGYAQKFQGRITMTRNTPISTVYMDLSSLRSEDTAVYYCAREGHYDFWTGYYSFDYWGQGTLVTVSS VL: DIQMTQSPSSLSASVGDRVTITCRASQGIRNDLGWYQQTPGKAPKRLIYAASSLQSGVPSRFSGSGSGTEFTLTISSLQPEDFATYYCLQHYSYPYTFGQGTKLEIK")
0
>>> class("mAb 156 (antibody, V domains shown) VH: EVQLVESGGGLVKTGGSLRLSCVASGFSFKKAWMNWVRQAPGKGLEWVGRIKRNTDGGTADYAAPVKGRFTLSRDDSKKTLFLQMNSLKTEDTAVYYCTTLDSSSYYVGYYYMDVWGKGTTVTVSS VL: DIQMTQSPSSVSASVGDRVIITCRASQDINNWLAWYQQKAGKAPKLLIYTASSLQSGVPSRFSGSGSGTDFTLTIGSLQPEDFATYYCQQAHSLPITFGQGTRLEIK")
1
>>> class("mAb 54 (antibody, V domains shown) VH: EVQLEESGGGLVQPGGSLRLSCAASGFTFSRYSMNWVRQAPGKGLEWFSYISSSSRTIYYADSVKGRFTMSRDNAKNSLYLQMNSLRDEDTAVYFCARGDYYDSEGMDVWGKGTTVTVSS VL: DIQMTQSPSTLSASVGDRVTITCRASQTITTWLAWYQQKPGKAPKLLIYKASTLESGVPSRFSGSGSGTEFTLTISSLQPDDFATYHCQQYKTFSYTFGQGTKLDIK")
0

Report whether reported CD4 EC50 (nM); CD69/CD25 on human T cells, plate-coated antibody is lower than 7 nM (strictly) for mAb 49 (antibody, V domains shown) VH: EVQLVESGGGLVPPGGSLRLSCVASGFTLRSYTMNWVRQAPGQGLEWISYISSTSRTIYYSDSVKGRFTISRDNAKNSLYLQVNSLRDEDTALYYCAREDYYDSSGFDCWGQGTLVTVSS VL: AIRMTQSPSSFSASTGDRVTITCRASQGIFNYLAWYQQKPGKAPKLLIYSTSTLQSGVPSRFSGSGSGTDFTLTIRGLQSEDLATYYCQQYYSFPRTFGQGTKVDIK
1

Now consider mAb 179 (antibody, V domains shown) VH: EVQLVESGGGLVQPGRSLRLSCAASGFTFDDYTMHWVRQTPGKGLEWVSDISWNSGSIGYADSVKGRFTISRDNAKNTLYLQMNSLRAEDTALYYCVKDSSGYGHYLYYYMDVWGKGTTVTVSS VL: DIQMTQSPSSLSASVGDRVTITCRASQSIRNYLNWYQQSPGRAPKLLIFSASSLQSGVPSRFSGSGSGTDFTLTISSLQPEDFVTYYCQQRYSTPITFGQGTRLEIK and answer again.
0

Proceed to mAb 169 (antibody, V domains shown) VH: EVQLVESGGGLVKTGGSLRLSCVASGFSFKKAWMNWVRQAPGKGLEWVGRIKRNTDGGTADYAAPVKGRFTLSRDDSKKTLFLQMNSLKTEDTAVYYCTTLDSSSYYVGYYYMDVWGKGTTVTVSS VL: DIQMTQSPSSVSASVGDRVIITCRASQDINNWLAWYQQKPGKAPKLLIYTASSLQSGVPSRFSGSGSGTDFILTIGSLQPEDFATYYCQQAHSLPITFGQGTRLEIK
1

Continue with mAb 42 (antibody, V domains shown) VH: QAQLVQSGSELKKPGASVKVSCKASGYTFTKHSMNWVRQAPGQGLEWMGWINTNTGNPTYAQGFTGRFVFSLDTSVTTAYLQISSLKAEDTAVYYCAREGDYDFWSGFFNFDYWGQGTLVTVSS VL: DIQMTQSPSSLSASVGDRVTITCRASQGIRNDLGWYQQKPGKAPKRLIYAASSLQSGVPSRFSGSGSGAEFTLTISSLQPEDFATYYCLQHNSYPRTFGQGTKVEIK
0

Also mAb 178 (antibody, V domains shown) VH: EVQLVESGGGLVQPGRSLRLSCAASGFTFDDYTMHWVRQAPGKGLEWVSDISWNSGTIGYADSVKGRFTISRDNAKNSLYLQMNSLRAEDTALYYCVKDSSGYGHYYKYYMDVWGKGTTVTVSS VL: DIQMTQSPSSLSASVGDRVTITCRASQSISNYLNWYQQKAGKVPKVLIYGSSSLQSGVPSRFSGSGSGTDFTLTISSLQPEDFASYYCQQTYSSPLTFGGGTKVDFK ?
0

Would you mind doing mAb 177 (antibody, V domains shown) VH: EVQLVESGGGLVQPGMSLRLSCAASGFTFDDYTMHWVRQSPGKGLEWVAGISWNSGTIGYGDSMKGRFTISRDNAKNSLDLQMNSLRVEDTALYYCAKDTSGYGHYYYYFMDVWGKGTTVTVSS VL: DIQMTQSPSSLSASIGDRVSITCRTSQIINNYLNWYQQKPGKAPKLLIYSASSLQSGVPSRFSGSGSGTDFTLTLSSLQPEDFATYFCQQSYNFPITFGQGTRLELK as well?
0
